# System: SK-MEL-28 melanoma
# experiment-summary: NCI-60 one-dose screen, 48 h (100 = growth as untreated, 0 = no growth, -100 = all killed)
# test-context: 10 µM unless noted
# Procedure: Growth inhibition of the SK-MEL-28 human tumor cell line is measured as a screen for anti-cancer activity. Cells are grown in 96 well plates and exposed to the test compound for 48 hours. Compounds are tested at a single concentration, which is 10^-5 M for most compounds. The reported endpoint is percent growth (GI% or GIPRCNT), where numbers from 0 - 100% represent growth inhibition, and numbers from -100% - 0 represent cell death. For example, a value of 40 represents 60% growth inhibition. […]
Compounds without any hit were thinned out: in the full panel of roughly 83,000, 20% have a hit.
Assign y whenever growth does not fall below 80%; assign n whenever it does.

Known results for compounds:
{"compound": "Cc1cccc(C[C@H](NC(=O)Nc2ccc(Cl)cc2F)C(=O)N[C@@H]2C(=O)N3C[C@H](O)C[C@H]3C(=O)N3CCN(C)C[C@H]3C(=O)N[C@@H](C)C(=O)N3C[C@H](C)C[C@H]3C(=O)O[C@H]2C)c1", "class-label": "n"}
{"compound": "CC[C@@](C)(NC(=O)[C@H](C)NC(=O)CCNC(=O)C(C)(C)NC(=O)[C@H](C)NC(=O)[C@@H]1CCCN1C(=O)[C@@](C)(CC)NC(=O)[C@H](Cc1ccccc1)NC(=O)C1CCCN1C(=O)C(C)(C)NC(=O)C1CCCN1C(=O)C(C)(C)NC(C)=O)C(=O)NCCC(=O)N[C@@H](CC(C)C)C(=O)NC(C)(C)C(=O)NCCC(=O)N[C@@H](CC(C)C)C(=O)NC(C)(C)C(=O)NC(C)(C)C(=O)N[C@@H](CC(C)C)C(=O)NCCC(=O)NCO (stereo not given in full)", "class-label": "n"}
{"compound": "O=C1CN(Cc2ccc(C(=O)NO)cc2)C(=O)[C@@H](Cc2ccccc2)N1", "class-label": "y"}

With those in mind, consider the next compound.
Req: Exam item: decide whether the reported growth for "CCOC(=O)COc1ccc2c(c1)O/C(=C\c1ccc(O)cc1)C2=O" is at least 80%.
Resp: y

====

# System: SF-295 CNS
# experiment-summary: NCI-60 one-dose screen, 48 h
# test-context: 10 µM unless noted
About 83,000 compounds went through this panel and 20% of them were active in at least one assay; those are over-represented in the sample as a whole. The source made the active and inactive calls. The calls were made as follows: active = growth percent below 10; inactive = the rest.
Hi! Could you answer with just one of these? active, inactive

{"molecule": "CCCCNC(=O)NS(=O)(=O)Cc1ccccc1", "class-label": "inactive"}

Req: Hi team, can someone confirm the assay call for CC/C=C(\C)C(CCC)(CN=O)C(=O)OCC (stereo not given) ?
Resp: inactive

Req: Hi team, can someone confirm the assay call for "COc1ccc(C(C(=O)O)c2ccc(OC)cc2)cc1" ?
Resp: inactive

====

# Test system: HT29 colon
# experiment-summary: NCI-60 one-dose screen, 48 h (100 = growth as untreated, 0 = no growth, -100 = all killed)
# test-context: 10 µM unless noted
The panel holds about 83,000 compounds, 20% with a hit somewhere; the sample as a whole holds those more often. Activity calls are given as the source filed them. The calls were made as follows: active = growth percent below 10; inactive = the rest.
endpoint-label: growth

Req: What value of measured growth is listed for CC/C=C(\C)C(CCC)(CN=O)C(=O)OCC (stereo not given) ?
Resp: 106% (inactive)

Req: What value of measured growth is listed for "COc1ccc2nc3cc(Cl)ccc3c(Nc3ccc(O)c(CN4CCCC4)c3)c2c1" ?
Resp: -22.8% (active)

Req: What value of measured growth is listed for "COc1c(B(O)O)cccc1-c1nc2ccc3[nH]ncc3c2c2c1CCC2" ?
Resp: 63.8% (inactive)

Req: What value of measured growth is listed for "COc1ccc(C(=O)/C=C/c2ccccn2)c(O)c1" ?
Resp: 72.2% (inactive)

Req: What value of measured growth is listed for "O=C(CSc1nccc(Nc2ccc(S(=O)(=O)Nc3ccccn3)cc2)n1)c1ccc(Cl)cc1" ?
Resp: 107% (inactive)

Reference source for all entries: PubChem BioAssay (NCI)
